system: L-Trp 2',3'-oxidase; assay: Specificity of the reaction (conversion of amino acid derivatives and indole compounds); assay type: biochemical, Chromobacterium violaceum
recordedMetric: conversion by the enzyme (specificity of the reaction)

CC(=O)N[C@H](Cc1c[nH]c2ccccc12)C(=O)O [N-acetyl-D-tryptophan] = No conversion
O=CN[C@@H](Cc1c[nH]c2ccccc12)C(=O)O [N-formyl L-Trp] = No conversion
N[C@H](Cc1c[nH]c2ccccc12)C(=O)O [D-tryptophan] = No conversion
N[C@@H](Cc1c[nH]c2ccc(O)cc12)C(=O)O [5-hydroxyl L-Trp] = No conversion
